The measured values listed here are drawn from patent US20230340111A1.

I'd be grateful if you could share measured EC50 for these entries.
# system under test: T1, human FOLR1 expressed on SKOV-3 ovarian carcinoma cells (human, UniProt P15328 25-234)
# T1 construct: Naturally expressed receptor on SKOV-3 cells; also called human FOLR1pos SKOV-3 cancer cells; human FOLR1-expressing cell line SKOV-3
# T1 sequence (P15328 25-234 limits assumed): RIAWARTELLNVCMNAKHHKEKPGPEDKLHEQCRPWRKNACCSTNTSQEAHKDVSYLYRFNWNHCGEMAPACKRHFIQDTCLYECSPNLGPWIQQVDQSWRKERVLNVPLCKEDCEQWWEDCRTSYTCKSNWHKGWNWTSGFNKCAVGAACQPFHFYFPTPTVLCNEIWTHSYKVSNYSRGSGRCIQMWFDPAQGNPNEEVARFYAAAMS
# protocol text: saturation binding of 99mTc-labelled His6-tagged VHH on SKOV-3 cells (0-300 nM); non-specific binding by 100-fold unlabelled VHH
Give the value, in units of nM, as a plain number.

Query block: Which EC50 reading was recorded for the binder 99mTc-labeled His6-tagged VHH A2 (VHH, [99mTc(H2O)3(CO)3] at the His6-tail, also called 99mTc-A2; 99mTc-VHH A2) VHH: DVQLVESGGGLVQAGGSLRLSCAADEMKFSNYDLAWYRRAPGKQRELAAIITSGGSTNYPDSVKGRFTISRDNAKNTVYLEMNSLKPEDTAVYYCNALRPWPQFSDYWGQGTQVTVSS ?
Result block: 1.1

Query block: Give the measured EC50 of 99mTc-labeled His6-tagged VHH A4 (VHH, [99mTc(H2O)3(CO)3] at the His6-tail, also called 99mTc-A4) VHH: DVQLVESGGGLARAGGSLRLSCAASGRAFSSTYAMGWFRQAPGKEREFVADINWSEGSPMYIDSVKDRFTISRDNARNSLYLQMNSLKSEDTAVYYCAARRFGQGYEYWGQGTQVTVSS .
Result block: 3.8

Query block: Would you kindly share the measured EC50 for 99mTc-labeled His6-tagged VHH A3 (VHH, [99mTc(H2O)3(CO)3] at the His6-tail, also called 99mTc-A3) VHH: DVQLVESGGGLVQAGGSLRLSCGVSGNMFSMNLMGWYRQPPGKERDWVAVITKDGSTNYADSVKGRFTISRDNAKNTVSLQMNSLKPEDTAVYYCNVQDGSGWIRAWGWDWGQGTQVTVSS ?
Result block: 3.3

Query block: Entry 99mTc-labeled His6-tagged VHH A5 (VHH, [99mTc(H2O)3(CO)3] at the His6-tail, also called 99mTc-A5) VHH: DVQLVESGGGLVQAGGSLRLSCGVSGNIFSMNLMGWYRQPPGKEREWVALITKDGSTNYEDSVKGRFTISRDNAKNTVSLQMNSLKPEDTAVYYCNAQDGSGWIRAWGWDWGQGTQVTVSS has what EC50?
Result block: 28.6

Query block: I'd like to know its EC50. The binder in question is 99mTc-labeled His6-tagged VHH A1 (VHH, [99mTc(H2O)3(CO)3] at the His6-tail, also called 99mTc-A1; 99mTc-VHH A1) VHH: DVQLVESGGGLVQPGGSLRLSCAASESIFSRNHMSWYRQAPGKQRELAAIITSDGNTNYPDSVKGRFTISRDNAKNTVYLQMNSLKPEDTAVYYCNTFGRSVAGFYDYWGQGTQVTVSS
Result block: 1
